Measured Target: UniProtKB O00519
Sequence (O00519 whole entry): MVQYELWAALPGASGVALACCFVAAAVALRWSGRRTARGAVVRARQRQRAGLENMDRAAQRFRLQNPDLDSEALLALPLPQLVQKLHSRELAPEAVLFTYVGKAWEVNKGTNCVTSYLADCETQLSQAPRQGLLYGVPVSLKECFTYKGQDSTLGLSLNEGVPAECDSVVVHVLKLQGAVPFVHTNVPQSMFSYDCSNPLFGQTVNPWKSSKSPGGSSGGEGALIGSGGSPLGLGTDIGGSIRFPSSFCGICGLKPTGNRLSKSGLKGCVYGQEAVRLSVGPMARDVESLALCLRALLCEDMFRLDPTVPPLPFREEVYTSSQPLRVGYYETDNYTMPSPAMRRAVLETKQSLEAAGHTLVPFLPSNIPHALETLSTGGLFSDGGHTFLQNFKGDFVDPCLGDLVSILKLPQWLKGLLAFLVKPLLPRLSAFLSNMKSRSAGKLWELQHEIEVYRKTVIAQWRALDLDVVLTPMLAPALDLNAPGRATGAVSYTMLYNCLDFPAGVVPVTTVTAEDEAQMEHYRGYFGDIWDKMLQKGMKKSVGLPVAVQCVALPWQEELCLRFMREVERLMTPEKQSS
Assay Overview: FAAH Inhibition Assay (60 min Preincubation)
Condition Details: pH 7.4; 30 °C
Test Readout: pIC50
Quick note: pIC50 means taking -log10 of the concentration in moles per liter.

Prompt line: Test system UniProtKB O00519; read-out pIC50; what value for O=C(Nc1ccccc1)N1CCN(Cc2ccc3ccccc3n2)CC1 ?
Response line: 7.48

* * *

Measured Target: UniProt:O00519
Assay Overview: FAAH Inhibition Assay (5 min Preincubation)
Condition Details: pH 7.4; 30 °C
Test Readout: pIC50
FYI, pIC50 means -log10 of a concentration in mol per litre.

Prompt line: Reported pIC50, compound O=C(Nc1ccccc1)N1CCN(Cc2ccc3ccccc3n2)CC1 : ____
Response line: 6.00

FYI, the data here is from BindingDB's records for doi:10.1021/bi701378g.
